# System: absorption of sodium from the intestinal lumen
# assay info: Inhibition of intestinal sodium absorption: urinary sodium (uNa) 16 h after single oral dose in rats
# Assay type: in vivo, rat
# protocol conditions: oral gavage, dose 3 mg/kg, 16 h post-dose
Urine Na % of control values, listed per item
Kindly answer with a numeric value in %, unit omitted.

Some compounds with recorded Urine Na % of control:
• O=C(NCCCCNC(=O)NCCOCCOCCOCCNS(=O)(=O)c1ccc(O[C@H]2c3ccccc3C[C@@H]2N2CCCCC2)cc1)NCCOCCOCCOCCNS(=O)(=O)c1ccc(O[C@H]2c3ccccc3C[C@@H]2N2CCCCC2)cc1 [compound 72] = 74
• CN1Cc2c(Cl)cc(Cl)cc2[C@H](c2cccc(S(=O)(=O)NCCOCCOCCNC(=O)NCCN(CCNC(=O)NCCOCCOCCNS(=O)(=O)c3cccc([C@@H]4CN(C)Cc5c(Cl)cc(Cl)cc54)c3)C(=O)NCCOCCOCCNC(=O)c3ccc(-c4ccc(Cl)cc4)cc3)c2)C1 [compound 110] = 63
• CN1Cc2c(Cl)cc(Cl)cc2[C@H](c2cccc(S(=O)(=O)NCCOCCOCCNC(=O)N(C)CCCN(CCCN(C)C(=O)NCCOCCOCCNS(=O)(=O)c3cccc([C@@H]4CN(C)Cc5c(Cl)cc(Cl)cc54)c3)CCCN(C)C(=O)NCCOCCOCCNS(=O)(=O)c3cccc([C@@H]4CN(C)Cc5c(Cl)cc(Cl)cc54)c3)c2)C1 [compound 107] = 55
• CN1Cc2c(Cl)cc(Cl)cc2[C@H](c2cccc(S(=O)(=O)NCCOCCOCCN(C)C(=O)CCC(CCC(=O)N(C)CCOCCOCCNS(=O)(=O)c3cccc([C@@H]4CN(C)Cc5c(Cl)cc(Cl)cc54)c3)(CCC(=O)N(C)CCOCCOCCNS(=O)(=O)c3cccc([C@@H]4CN(C)Cc5c(Cl)cc(Cl)cc54)c3)NC(=O)COCC(=O)O)c2)C1 [compound 177] = 52

Q: Which Urine Na % of control value is on record for CN1Cc2c(Cl)cc(Cl)cc2[C@H](c2cccc(S(=O)(=O)NCCOCCOCCNC(=O)CCC(CCC(=O)NCCOCCOCCNS(=O)(=O)c3cccc([C@@H]4CN(C)Cc5c(Cl)cc(Cl)cc54)c3)(CCC(=O)NCCOCCOCCNS(=O)(=O)c3cccc([C@@H]4CN(C)Cc5c(Cl)cc(Cl)cc54)c3)NS(C)(=O)=O)c2)C1 [compound 122] ?
Result: 30

Q: Which Urine Na % of control value is on record for CN(CC(=O)O)CC(=O)NC(CCC(=O)NCCOCCOCCNS(=O)(=O)c1cccc([C@@H]2CN(C)Cc3c(Cl)cc(Cl)cc32)c1)(CCC(=O)NCCOCCOCCNS(=O)(=O)c1cccc([C@@H]2CN(C)Cc3c(Cl)cc(Cl)cc32)c1)CCC(=O)NCCOCCOCCNS(=O)(=O)c1cccc([C@@H]2CN(C)Cc3c(Cl)cc(Cl)cc32)c1 [compound 138] ?
Result: 37

Q: Which Urine Na % of control value is on record for CN1Cc2c(Cl)cc(Cl)cc2[C@H](c2cccc(S(=O)(=O)NCCOCCOCCNC(=O)NCCC[N+](C)(CCCNC(=O)NCCOCCOCCNS(=O)(=O)c3cccc([C@@H]4CN(C)Cc5c(Cl)cc(Cl)cc54)c3)CCCNC(=O)NCCOCCOCCNS(=O)(=O)c3cccc([C@@H]4CN(C)Cc5c(Cl)cc(Cl)cc54)c3)c2)C1 [compound 109] ?
Result: 52

Q: Which Urine Na % of control value is on record for CN1Cc2c(Cl)cc(Cl)cc2[C@H](c2cccc(S(=O)(=O)NCCOCCOCCNC(=O)CCC(CCC(=O)NCCOCCOCCNS(=O)(=O)c3cccc([C@@H]4CN(C)Cc5c(Cl)cc(Cl)cc54)c3)(CCC(=O)NCCOCCOCCNS(=O)(=O)c3cccc([C@@H]4CN(C)Cc5c(Cl)cc(Cl)cc54)c3)NC(=O)NCC(=O)O)c2)C1 [compound 164] ?
Result: 18
